Reference source for all entries: patent US20050209157A1

# experiment-summary: in vitro
# condition: human, WI38 normal lung fibroblast cells, Peptide toxicity WI-38 LD/50, human fibroblast cells
No end group written: not given here.

[
  {
    "substance": "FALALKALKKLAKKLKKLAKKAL-NH2 [compound 10]",
    "CC50 at 24 h": "24 mg/L"
  },
  {
    "substance": "VAKLLAKLAKKLL-NH2 [compound 30]",
    "CC50 at 24 h": "60 mg/L"
  },
  {
    "substance": "FALKALKKLKKALKKAL-NH2 [compound 115]",
    "CC50 at 24 h": "130 mg/L"
  }
]
